- system name: T1, PARD3B_1, Q8TEW8
- T1 sequence (Q8TEW8 196-299, limits assumed, looked up): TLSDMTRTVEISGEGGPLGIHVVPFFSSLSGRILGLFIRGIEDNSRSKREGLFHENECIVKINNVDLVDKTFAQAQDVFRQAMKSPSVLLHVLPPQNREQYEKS
- test details: holdup assay
- Parameters: key: below the threshold = too weak to quantify, mostly under pKd 3.1 to 4
- run parameters: plain residues with an end cap or a label only (N-terminal biotin on a linker: ado-ado)
So basically: pKd at 4 or higher? That is satisfied. Lower than 4? That is not satisfied.

INSERT INTO results (binder, label_value) VALUES
  ('SRPHTNETSL [MCC, P23508]', 'not satisfied'),
  ('IKLETKKTKL [SLC15A2, Q16348]', 'not satisfied'),
  ('KPDKQEEFYA [SDC3, O75056]', 'satisfied'),
  ('THREVKFTSL [CD46, P15529]', 'satisfied'),
  ('FVFESRKEIL [TBPL1, P62380]', 'satisfied'),
  ('HDDYFYHDEL [RCN2, Q14257]', 'not satisfied');
